Consider the following binders; for each one, report its IC50.
- Target Of Assay: T1, CD3 expressed on cell-surface of primary human T cells (human, UniProt P07766 23-207; P04234 22-171)
- T1 construct: also called cell-surface CD3; human CD3
- T1 sequence (P07766 23-207 limits assumed, chain 1 of 2): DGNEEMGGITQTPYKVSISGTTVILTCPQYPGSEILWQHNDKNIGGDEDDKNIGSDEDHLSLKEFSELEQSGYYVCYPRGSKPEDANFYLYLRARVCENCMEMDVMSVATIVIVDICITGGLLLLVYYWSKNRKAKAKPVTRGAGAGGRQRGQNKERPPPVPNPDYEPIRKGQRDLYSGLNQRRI
- T1 sequence (P04234 22-171 limits assumed, chain 2 of 2): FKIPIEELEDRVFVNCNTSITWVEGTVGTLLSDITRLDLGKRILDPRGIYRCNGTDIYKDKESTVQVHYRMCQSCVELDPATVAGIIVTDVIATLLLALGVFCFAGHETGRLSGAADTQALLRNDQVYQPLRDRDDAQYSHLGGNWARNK
- Test Details: flow cytometry competition vs murine SP34-AF488 on human T cells, n = 1

Identify measured IC50 corresponding to huSP34.7.1 Fab-HF (Fab, V domains shown) VH: EVQLVESGGGLVQPGGSLRLSCAASGFTFSDYAMNWVRQAPGKGLEWVGRTRSKYNNYATYYAASVKGRFTISRDDSKNSLYLQMNSLKTEDTAVYYCVRHGNFGNSYVSWFAVWGQGTLVTVSS VL: QAVVTQEPSLTVSPGGTVTLTCRSSTGAVTTSNYANWVQQKPGQAPRGLIGGTNKRAPWTPARFSGSLIGDKAALTLSGAQPEDEAEYYCALWYSNLWVFGGGTKLTVL
> 20 µg/mL

Identify measured IC50 corresponding to huSP34.5.6 Fab-HF (Fab, V domains shown) VH: EVQLVESGGGLVQPGGSLRLSCAASGFTFSTYAMNWVRQAPGKGLEWVGRIRSKYNNYATYYADSVKGRFTISRDNSKNTLYLQMNSLRAEDTAVYYCVRHGNFGHSYVSWFAVWGQGTLVTVSS VL: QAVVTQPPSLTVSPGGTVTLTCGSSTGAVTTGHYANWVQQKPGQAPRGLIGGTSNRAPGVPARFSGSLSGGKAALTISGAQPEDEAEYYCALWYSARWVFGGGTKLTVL
> 20 µg/mL

Identify measured IC50 corresponding to huSP34.10.1 Fab-HF (Fab, V domains shown) VH: EVQLVESGGGLVQPGGSLRLSCAASGFTFSDYAMNWVRQAPGKGLEWVGRTRSKYNSYATYYAASVKGRFTISRDDSKNSLYLQMNSLKTEDTAVYYCVRHGNFGHSYVSWFAVWGQGTLVTVSS VL: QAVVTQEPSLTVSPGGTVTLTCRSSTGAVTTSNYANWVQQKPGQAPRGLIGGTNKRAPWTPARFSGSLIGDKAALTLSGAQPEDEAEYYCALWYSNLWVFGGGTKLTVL
> 20 µg/mL

Value source: patent US20230056252A1
